- method.summary: Cmax in healthy human at 5 mg administered as single dose suspension
- Format: ADME, organism-based
- Set-up: dose 5 mg
- test.parameters: in vivo
readout.name: Cmax (ng/mL)
Hi! Could you send only the number? It should be in ng/mL, unit omitted.

What Cmax value was documented for this compound, C[C@@H]1CCO[C@H]2Cn3cc(C(=O)NCc4ccc(F)cc4F)c(=O)c([O-])c3C(=O)N12.[Na+] [DOLUTEGRAVIR SODIUM] ?
661

====

- method.summary: Tmax in healthy human at 2 mg administered as single dose suspension
- Format: ADME, organism-based
- test.parameters: in vivo
readout.name: Tmax (min)
All answers are understood in min, so give the number only.

Suppose we examine the compound C[C@@H]1CCO[C@H]2Cn3cc(C(=O)NCc4ccc(F)cc4F)c(=O)c([O-])c3C(=O)N12.[Na+] [DOLUTEGRAVIR SODIUM] ; what Tmax value has been reported?
37.8

====

- method.summary: AUC (0-tau) in healthy human at 10 mg, qd for 10 days administered as suspension measured after last dose
- Type: ADME, organism-based
- test.parameters: plasma
readout.name: AUC tau at 240 h
Could you kindly put the unit after your number?

// query AUC tau at 240 h value for entry C[C@@H]1CCO[C@H]2Cn3cc(C(=O)NCc4ccc(F)cc4F)c(=O)c([O-])c3C(=O)N12.[Na+] [DOLUTEGRAVIR SODIUM]
16700 ng·h/mL

====

- method.summary: AUC (0-t) in healthy human at 10 mg administered as single dose suspension
- Format: ADME, organism-based
- test.parameters: plasma
readout.name: AUC(0-t)

Entry C[C@@H]1CCO[C@H]2Cn3cc(C(=O)NCc4ccc(F)cc4F)c(=O)c([O-])c3C(=O)N12.[Na+] [DOLUTEGRAVIR SODIUM] : reported AUC(0-t) = ?
14300 ng·h/mL

====

- method.summary: Apparent oral clearance in healthy human at 2 mg administered as single dose suspension
- Type: ADME, organism-based
- test.parameters: in vivo
readout.name: CL/F (mL/min)
Give just the numeric value; mL/min need not be written.

I have this compound here, C[C@@H]1CCO[C@H]2Cn3cc(C(=O)NCc4ccc(F)cc4F)c(=O)c([O-])c3C(=O)N12.[Na+] [DOLUTEGRAVIR SODIUM] , and I need its recorded CL/F.
12

====

- method.summary: Half life in healthy human at 10 mg administered as single dose suspension
- Type: ADME, organism-based
- test.parameters: in vivo
readout.name: half-life
The answer should read as a number with its unit following.

Reported half-life, compound C[C@@H]1CCO[C@H]2Cn3cc(C(=O)NCc4ccc(F)cc4F)c(=O)c([O-])c3C(=O)N12.[Na+] [DOLUTEGRAVIR SODIUM] : ____
12.7 h

====

- method.summary: Apparent oral clearance in healthy human at 5 mg administered as single dose suspension
- Assay type: ADME, organism-based
- test.parameters: in vivo
readout.name: CL/F (mL/min)
Field: numeric (mL/min). Do not append units.

Need CL/F, item C[C@@H]1CCO[C@H]2Cn3cc(C(=O)NCc4ccc(F)cc4F)c(=O)c([O-])c3C(=O)N12.[Na+] [DOLUTEGRAVIR SODIUM]
9.33

====

- method.summary: AUC (0-infinity) in healthy human at 25 mg administered as single dose suspension
- Type: ADME, organism-based
- Parameters: dose 25 mg, time infinity
- test.parameters: plasma
readout.name: AUC(0-inf) (ng·h/mL)
# value in ng·h/mL; strip the unit string

Form field: reported AUC(0-inf) of C[C@@H]1CCO[C@H]2Cn3cc(C(=O)NCc4ccc(F)cc4F)c(=O)c([O-])c3C(=O)N12.[Na+] [DOLUTEGRAVIR SODIUM]
35100
